B1: Chromodomain-helicase-DNA-binding protein 4, residues 444 to 496; numbered along this chain, Q14839 (parent)
chain: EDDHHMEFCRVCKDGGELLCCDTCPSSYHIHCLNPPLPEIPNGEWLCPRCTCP

- Variants of: B1
- Assay details: abundance fitness (aPCA) (normalised: wild type 0, dead -1); higher = more abundant; growth selection in yeast, the domain comes from the species named
- Conditions used: Homo sapiens
The threshold is inclusive: abundance fitness of exactly -0.7 counts as yes (1); values below receive no (0).

Before answering, review these 5 worked examples.
Variant string: Y28P
Class label: yes (1)
//
Variant string: P36K
Class label: yes (1)
//
Variant string: C12D
Class label: no (0)
//
Variant string: C50Y
Class label: no (0)
//
Variant string: P25H
Class label: yes (1)

Switching to the query record.
Identify whether the reported abundance fitness of the following variant is -0.7 or greater: L18M
yes (1)

The reported numbers originate from the Human Domainome abundance scans (Beltran et al. 2025).
